- Tested on: HOP-62 NSCLC
- assay info: NCI tumour cell line growth inhibition, 48 h
Reported GI50 values are given for each entry in this list.

Enquiry: State the recorded GI50 for this entry: O=C(CSSCC(=O)c1ccc(Cl)cc1)c1ccc(Cl)cc1
Return: 5.03 µM

Enquiry: State the recorded GI50 for this entry: C[C@H]1C[C@@H](n2c(Nc3ccc(OC(F)(F)F)cc3)nc3cc(CCC(=O)O)ccc32)CC(C)(C)C1
Return: 20.6 µM

Enquiry: State the recorded GI50 for this entry: CCN1C(=O)N(CC)C2C1NN=c1s/c(=C3\C(=O)Nc4ccccc43)c(=O)n12 (stereo not drawn)
Return: 0.734 µM

###

- Tested on: PC-3 prostate
- assay info: NCI tumour cell line growth inhibition, 48 h
Reported TGI values are given for each entry in this list.

# annotated cases, reported TGI shown
• O=C1OC(C(O)CO)C(C(O)CO)OC1=O (centres undefined) = > 10 µM
• COC(=O)CNC(=O)C(=O)c1c(O)c(O)c(C(C)C)c2cc(C)c(-c3c(C)cc4c(C(C)C)c(O)c(O)c(C(=O)C(=O)NCC(=O)OC)c4c3O)c(O)c12 = 7.26 µM
• CC(C)(C)OC(=O)NC(CSCc1ccc(C(=O)c2ccccc2)cc1)C(=O)N1CCN(CCCCN2c3ccccc3Sc3cc(N=[N+]=[N-])ccc32)CC1 (centres undefined) = > 100 µM
• O=C1c2c(c3c4cc(F)ccc4oc3c3[nH]c4ccccc4c23)C(=O)N1O = > 100 µM
• O=CNC(Cc1cnc[nH]1)C(=O)O (centres undefined) = > 100 µM
• CC(C)(C)OC(=O)N(CCCCN(CCCn1c2c(c3ccccc3c1=O)C(=O)c1ccccc1-2)C(=O)OC(C)(C)C)CCCn1c2c(c3ccccc3c1=O)C(=O)c1ccccc1-2 = > 100 µM
• COc1cc(C[C@H]2COC(=O)[C@]2(O)Cc2ccc(OCc3ccccc3)c(OC)c2)ccc1OCc1ccccc1 = > 100 µM
• Nc1nc(N)nc(CCCCc2nc(N)nc(N)n2)n1 = > 100 µM

Enquiry: State the recorded TGI for this entry: COC(=O)c1csc(-c2csc(CCNC(=O)OC(C)(C)C)n2)n1
Return: > 100 µM

Enquiry: State the recorded TGI for this entry: Cc1[nH]c(=O)nc(N/N=C/c2c3ccccc3c(Cl)c3ccccc23)c1C(=O)Nc1ccc(Cl)cc1
Return: > 100 µM

###

- Tested on: HT29 colon
- assay info: NCI tumour cell line growth inhibition, 48 h; in the data active = GI50 below about 0.43 µM; inactive = the rest
Choose one outcome from this list and give only that: Yes for active, No for inactive

Reference set, count: 3
- CN(C)S(=O)(=O)c1cccc(C(=O)Nc2nc(-c3ccc(F)c(F)c3)cs2)c1: No
- CCN1C(=O)N(CC)C2C1NN=c1s/c(=C3\C(=O)Nc4ccccc43)c(=O)n12 (centres undefined): Yes
- O=C1c2c(c3c4cc(F)ccc4oc3c3[nH]c4ccccc4c23)C(=O)N1O: No

Enquiry: Per the records of this test, what outcome belongs to CN(C)CCNC(=O)c1ccc2c(c1)oc1cc3ccccc3c(=O)n12 ?
Return: No

Enquiry: Per the records of this test, what outcome belongs to COc1ccc(-c2cn(C)c3c2-n2cccc2C3=O)cc1O ?
Return: No

Enquiry: Per the records of this test, what outcome belongs to Cc1cccc(CNc2c3ccccc3nc3ccccc23)c1 ?
Return: No

Enquiry: Per the records of this test, what outcome belongs to CC(C)(C)OC(=O)NCCCCCCCCCn1c2c(c3ccccc3c1=O)C(=O)c1ccccc1-2 ?
Return: No

Enquiry: Per the records of this test, what outcome belongs to CC(C)(C)OC(=O)N(CCCCN(CCCn1c2c(c3ccccc3c1=O)C(=O)c1ccccc1-2)C(=O)OC(C)(C)C)CCCn1c2c(c3ccccc3c1=O)C(=O)c1ccccc1-2 ?
Return: No

Enquiry: Per the records of this test, what outcome belongs to COc1cc(/C=C/C(=O)c2c(C)n([O-])c3ccccc3[n+]2=O)cc(OC)c1OC ?
Return: No

Enquiry: Per the records of this test, what outcome belongs to COc1ccc(C2=C(c3ccc(OC)cc3)C(=O)OC2)cc1 ?
Return: No

Enquiry: Per the records of this test, what outcome belongs to COc1ccc(CCN2CCCn3c2nc2ccccc2c3=O)cc1 ?
Return: Yes
